Can you tell me IC50, IL-2 release from human PBMC treated with PMA and A23187 for the items I'm about to list?
STUDY_TARGET: human Orai1 (human, UniProt Q96D31 1-301)
Sequence (Q96D31 whole entry): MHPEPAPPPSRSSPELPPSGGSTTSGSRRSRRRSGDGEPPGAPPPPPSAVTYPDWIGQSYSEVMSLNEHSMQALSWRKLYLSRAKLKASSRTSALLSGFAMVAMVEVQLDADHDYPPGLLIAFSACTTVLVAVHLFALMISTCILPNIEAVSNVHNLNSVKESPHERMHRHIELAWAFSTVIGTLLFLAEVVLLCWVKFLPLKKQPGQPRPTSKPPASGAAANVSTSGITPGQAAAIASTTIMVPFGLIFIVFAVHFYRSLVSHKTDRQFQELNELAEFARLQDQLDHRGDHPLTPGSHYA
ASSAY_REMARKS: cell-based or functional assay

Query :: Returns the measured IC50, IL-2 release from human PBMC treated with PMA and A23187 for the input binder. Input: mouse anti-human Orai1 antibody 10F8 (antibody, mouse IgG1, kappa, V domains shown) VH: QVQLQQSGAELVRPGSSVKISCKASGYAFRSYWMNWVKQRPGQGLEWIGHIYPGDGDTNYNGKFKGKATLTADKSSSTAYMQLSSLTSEDSAVYLCGRGGTTVVVDYWGQGTTLTVSS VL: DIVMSQSPSSLAVSAGEKVTMSCKSSQSLLNSRTRKNYLAWYQQKPGQSPKLLIYWASTRESGVPDRFTGSGSGTDFTLTISSVQAEDLAVYYCKQSYNLPWTFGGGTKLEIKR
Result :: ≥ 0.1 µg/mL

Query :: Returns the measured IC50, IL-2 release from human PBMC treated with PMA and A23187 for the input binder. Input: mouse anti-human Orai1 antibody 17F6 (antibody, mouse IgG1, kappa, V domains shown) VH: QVQLQQSGAELVRPGSSVKISCKASGYAFSSYWMNWVKQRPGQGLEWIGHIYPGDADTNYNGKFKGKATLTADKSSSTAYMHLSSLTSEDSAVYFCSRQLGFRYAMDYWGQGTSVTVSS VL: DIVMSQSPSSLAVSAGEKVTMSCKSSQSLLNSRTRKNYLAWYQQKPGQSPKLLIYWASTRESGVPDRFTGSGSGTDFTLTISSVQAEDLAVYYCKQSYNLRTFGGGTKLEIKR
Result :: ≥ 0.1 µg/mL

Query :: Returns the measured IC50, IL-2 release from human PBMC treated with PMA and A23187 for the input binder. Input: human anti-human Orai1 antibody 5H3.1 (antibody, human IgG2, lambda, V domains shown) VH: QVQLVQSGAEVKKPGASVKVSCKASGYTFTDYYMNWVRQAPGQGLEWMGWINPNSGGTKYAQKFQGRVTMTRDTSIRTAYMELSRLRSDDTAVYYCAREYGGNSDWFDPWGQGTLVTVSS VL: QSVLTQPPSVSGAPGQRVTISCTGSSSNIGAGYDVHWYQQLPGTAPKLLIYGNSNRPSGVPDRFSGSKSGTSASLAITGLQAEDEADYYCQSYDNRLSDSVVIGGGTKLAVQG
Result :: ≥ 0.1 µg/mL

Query :: Returns the measured IC50, IL-2 release from human PBMC treated with PMA and A23187 for the input binder. Input: human anti-human Orai1 antibody 2C1.1 (antibody, human IgG2, lambda, V domains shown) VH: QVQLQQWGAGLLKPSETLSLTCAVYGGSFSGYYWSWIRQPPGKGLEWIGEIDHSGSTNYNPALKSRLTISVDTSKNQFSLKLSSVTAADTAVYYCARAGSGGYEDWFDPWGQGTLVTVSS VL: QSVLTQPPSVSGAPGQRVTISCTGSSSNIGAGYNVHWYQQFPRTDPKLLIYVYNIRPSGVPDRFSGSRSGTSASLAITGLQTEDEADYYCQSYDSSLSGVVFGGGTKLTVLG
Result :: ≥ 0.1 µg/mL

Query :: Returns the measured IC50, IL-2 release from human PBMC treated with PMA and A23187 for the input binder. Input: mouse anti-human Orai1 antibody 14F74 (antibody, mouse IgG1, kappa, V domains shown) VH: QVQLQQSGAELVRPGSSVKISCKASGYAFSSYWMNWVKQRPGQGLEWIGHIYPGDGDTNYNGKFKGKATLTADKSSSTAYMQLSGLTSEDSAVYFCARSGRLRFAMDYWGQGTSVTVSS VL: DIVMSQSPSSLAVSAGEKVTMSCKSSQSLLNSRTRKNYLAWYQQKPGQSPKLLIYWASTRESGVPDRFTGSGSGTDFTLTISSVQAEDLAVYYCKQSYNLRTFGGGTKLEIQR
Result :: ≥ 0.1 µg/mL
